protocol_summary: Pharmacokinetics after intravenous and oral administration in rats
Type: in vivo, rat
measurement_setup: rat, plasma, iv dosing, dose 1 mg/kg
readout_kind: AUC(0-t) (ng·h/mL)

Ask: Tell us which AUC(0-t) value is on record for CC[C@H](Nc1ncnc(N)c1-c1ncn(C)n1)c1nc2cccc(Cl)c2c(=O)n1-c1ccccc1F [Ex. 45]
Result: 278

Ask: Using known records, supply AUC(0-t) for CC[C@H](Nc1ncnc(N)c1-c1nc(C)no1)c1nc2cccc(C)c2c(=O)n1-c1ccccc1C [Ex. 27]
Result: 263

Ask: Identify measured AUC(0-t) corresponding to CC[C@H](Nc1ncnc(N)c1-c1noc(C)n1)c1nc2cccc(Cl)c2c(=O)n1C1CC1 [Ex. 12]
Result: 518

Ask: Dear colleague, please send me the reported AUC(0-t) for CC(C)c1noc(-c2c(N)ncnc2N[C@@H](C)c2nc3cccc(Cl)c3c(=O)n2C2CC2)n1 [Ex. 57] when you can.
Result: 199

Ask: Specify reported AUC(0-t) for the compound shown: CC[C@H](Nc1ncnc(N)c1-c1nnc(C)o1)c1nc2cccc(C)c2c(=O)n1-c1ccccc1C [Ex. 31]
Result: 260

Ask: For the compound CC[C@H](Nc1ncnc(N)c1-c1nc(C)no1)c1nc2cccc(Cl)c2c(=O)n1[C@@H]1C[C@@H]1F [Ex. 62] , give its measured AUC(0-t) value.
Result: 238

A: Cc1noc(-c2c(N)ncnc2N[C@@H](C)c2nc3cccc(Cl)c3c(=O)n2-c2ccccc2)n1 [Ex. 65]
B: CC[C@H](Nc1ncnc(N)c1-c1nnc(C)o1)c1nc2cccc(Cl)c2c(=O)n1C1CC1 [Ex. 2]
Ask: In the pair A and B , the larger recorded AUC(0-t) belongs to which? Kindly give the label for the entry you pick.
Result: B
(B: 405 ng·h/mL, A: 260 ng·h/mL)

P: CC[C@H](Nc1ncnc(N)c1-c1noc(C)n1)c1nc2cccc(C)c2c(=O)n1C1CC1
Q: CC[C@H](Nc1ncnc(N)c1-c1nc(C)co1)c1nc2cccc(Cl)c2c(=O)n1C1CC1 [Ex. 52]
Ask: Of P and Q , whose reported AUC(0-t) is the larger number? Mark your selection by writing its label.
Result: P

---

protocol_summary: Pharmacokinetics after intravenous and oral administration in rats
Assay type: in vivo, rat
measurement_setup: rat, plasma, iv dosing, dose 0.48 mg/kg
readout_kind: half-life (min)
Give your result in min as a bare value.

Ask: Name the recorded half-life of the item CC[C@H](Nc1ncnc(N)c1-c1nnc(C)o1)c1nc2ccccc2c(=O)n1-c1ccccc1F [Ex. 24] in your answer.
Result: 30.6

---

protocol_summary: Pharmacokinetics after intravenous and oral administration in dogs
Assay type: in vivo
measurement_setup: plasma; Dog, iv dosing, dose 1 mg/kg
readout_kind: half-life (h)

Ask: For the compound Cc1noc(-c2c(N)ncnc2N[C@@H](C)c2nc3cccc(Cl)c3c(=O)n2-c2ccccc2)n1 , report half-life.
Result: 10.6

1: CC[C@H](Nc1ncnc(N)c1-c1nc(C)no1)c1nc2cccc(Cl)c2c(=O)n1C1CC1
2: Cc1nnc(-c2c(N)ncnc2N[C@@H](C)c2nc3cccc(Cl)c3c(=O)n2-c2ccccc2)o1
Ask: Could you determine which record has the numerically smaller half-life? Candidates: 1 and 2 // caller expects the label of the chosen entry
Result: 2

---

protocol_summary: Pharmacokinetics after intravenous and oral administration in rats
Format: in vivo, rat
measurement_setup: rat, plasma, iv dosing, dose 1 mg/kg, read-out: Vss
readout_kind: Vd (L/kg)

# example entries with known answers
Ask: Check the records and state Vd for CC[C@H](Nc1ncnc(N)c1-c1ncn(C)n1)c1nc2cccc(Cl)c2c(=O)n1-c1ccccc1
Result: 1.51

Ask: Tell us which Vd value is on record for CC[C@H](Nc1ncnc(N)c1-c1nc(COC)n(C)n1)c1nc2cccc(Cl)c2c(=O)n1C1CC1
Result: 3.65

Ask: Report measured Vd; entry is CC[C@H](Nc1ncnc(N)c1-c1noc(C)n1)c1nc2ccccc2c(=O)n1-c1ccccc1F
Result: 7.21

Ask: Supply measured Vd of CC[C@H](Nc1ncnc(N)c1-c1nc(C)no1)c1nc2cccc(Cl)c2c(=O)n1-c1ccccc1 in your reply.
Result: 6.23

1: CC[C@H](Nc1ncnc(N)c1-c1noc(C)n1)c1nc2cccc(Cl)c2c(=O)n1C1CC1
2: CC[C@H](Nc1ncnc(N)c1C1=N[C@@H](C)CO1)c1nc2cccc(Cl)c2c(=O)n1-c1ccccc1
3: CC[C@H](Nc1ncnc(N)c1-c1nc(C)no1)c1nc2cccc(Cl)c2c(=O)n1C1CC1
Ask: Order the items by recorded Vd; the first position goes to the largest value. Output the labels ranked as instructed.
Result: 3, 2, 1

P: CC[C@H](Nc1ncnc(N)c1-c1nnn(C)n1)c1nc2cccc(F)c2c(=O)n1-c1ccccc1
Q: CC[C@H](Nc1ncnc(N)c1-c1nc(C)no1)c1nc2ccccc2c(=O)n1-c1ccccc1F
R: CC[C@H](Nc1ncnc(N)c1-c1nc(C)co1)c1nc2cccc(Cl)c2c(=O)n1C1CC1
Ask: List by increasing Vd. Use the labels to give the ranking in the order requested.
Result: P, R, Q

---

measured_target: PI3K (p110β/p85α) (h) (Homo sapiens (Human))
Sequence (P42338 whole entry): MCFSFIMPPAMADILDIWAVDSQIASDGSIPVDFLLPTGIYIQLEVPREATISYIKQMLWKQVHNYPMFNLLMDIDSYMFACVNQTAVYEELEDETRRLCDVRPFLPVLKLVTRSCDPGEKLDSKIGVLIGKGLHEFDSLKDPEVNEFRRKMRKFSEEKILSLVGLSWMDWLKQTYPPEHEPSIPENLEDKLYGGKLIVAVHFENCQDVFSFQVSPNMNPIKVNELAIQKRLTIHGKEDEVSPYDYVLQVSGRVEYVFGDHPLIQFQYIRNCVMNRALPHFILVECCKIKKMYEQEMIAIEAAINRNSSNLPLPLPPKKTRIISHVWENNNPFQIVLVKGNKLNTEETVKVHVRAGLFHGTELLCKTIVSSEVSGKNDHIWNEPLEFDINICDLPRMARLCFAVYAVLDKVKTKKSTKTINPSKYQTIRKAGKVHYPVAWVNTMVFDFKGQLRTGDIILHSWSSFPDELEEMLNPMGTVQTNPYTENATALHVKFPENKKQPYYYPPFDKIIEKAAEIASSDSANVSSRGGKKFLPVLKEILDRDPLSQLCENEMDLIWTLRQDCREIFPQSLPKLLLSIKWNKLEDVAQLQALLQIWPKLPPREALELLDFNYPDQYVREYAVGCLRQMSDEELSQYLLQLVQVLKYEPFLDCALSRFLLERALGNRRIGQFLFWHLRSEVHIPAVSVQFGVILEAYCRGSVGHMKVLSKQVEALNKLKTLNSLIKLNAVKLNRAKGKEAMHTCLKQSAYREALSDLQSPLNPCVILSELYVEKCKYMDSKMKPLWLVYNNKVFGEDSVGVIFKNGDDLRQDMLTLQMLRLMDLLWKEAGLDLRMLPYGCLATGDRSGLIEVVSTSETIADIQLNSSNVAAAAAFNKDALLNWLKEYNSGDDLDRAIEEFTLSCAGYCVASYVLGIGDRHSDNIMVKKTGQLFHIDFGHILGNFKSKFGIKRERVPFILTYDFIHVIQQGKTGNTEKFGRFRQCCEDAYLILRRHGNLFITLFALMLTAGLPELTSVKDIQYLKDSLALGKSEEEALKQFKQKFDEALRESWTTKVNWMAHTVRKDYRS
Sequence (P27986 whole entry partner): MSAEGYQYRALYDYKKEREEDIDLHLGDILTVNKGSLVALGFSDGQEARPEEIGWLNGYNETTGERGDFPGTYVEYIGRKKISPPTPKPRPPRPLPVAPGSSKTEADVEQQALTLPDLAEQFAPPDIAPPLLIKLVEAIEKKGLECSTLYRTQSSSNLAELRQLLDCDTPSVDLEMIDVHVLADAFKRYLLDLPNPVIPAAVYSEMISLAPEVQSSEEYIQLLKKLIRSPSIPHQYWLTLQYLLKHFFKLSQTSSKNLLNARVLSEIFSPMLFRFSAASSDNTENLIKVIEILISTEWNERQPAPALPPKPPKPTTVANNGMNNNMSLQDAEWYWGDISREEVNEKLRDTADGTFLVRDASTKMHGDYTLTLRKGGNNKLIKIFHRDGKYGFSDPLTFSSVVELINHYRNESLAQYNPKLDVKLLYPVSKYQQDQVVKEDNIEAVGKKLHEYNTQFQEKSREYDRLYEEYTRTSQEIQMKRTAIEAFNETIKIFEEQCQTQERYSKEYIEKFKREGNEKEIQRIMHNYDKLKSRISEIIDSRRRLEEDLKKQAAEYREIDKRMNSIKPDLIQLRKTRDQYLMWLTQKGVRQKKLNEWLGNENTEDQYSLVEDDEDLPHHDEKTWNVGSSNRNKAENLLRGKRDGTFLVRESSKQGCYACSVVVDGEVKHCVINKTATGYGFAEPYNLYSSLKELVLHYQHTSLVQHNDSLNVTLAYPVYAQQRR
protocol_summary: PI3K (p110β/p85α) (h) non-radioactive HTRF kinase assay
pIC50: −log10 of the molar value.
readout_kind: pIC50

Sample answers from the record:
Ask: Could you please provide reported pIC50 for CC[C@H](Nc1ncnc(N)c1-c1ncc(C)o1)c1nc2cccc(Cl)c2c(=O)n1C1CC1 ? Thanks!
Result: 5.56

Ask: Identify pIC50 associated with the compound CC[C@H](Nc1ncnc(N)c1-c1nc(C)no1)c1nc2cccc(Cl)c2c(=O)n1-c1ccccc1
Result: 6.85

I: Cc1noc(-c2c(N)ncnc2N[C@@H](C)c2nc3cccc(Cl)c3c(=O)n2C2CC2)n1
II: CC[C@H](Nc1ncnc(N)c1-c1nnc(C)o1)c1nc2cccc(Cl)c2c(=O)n1-c1cccc(F)c1
III: CC[C@H](Nc1ncnc(N)c1-c1nc(C)no1)c1nc2cccc(F)c2c(=O)n1-c1ccccc1
IV: CC[C@H](Nc1ncnc(N)c1-c1nnc(C)o1)c1nc2cccc(Cl)c2c(=O)n1C1CC1
Ask: Sort by pIC50, descending. Your answer should be the labels, listed in the requested order.
Result: I, IV, III, II

I: Cc1noc(-c2c(N)ncnc2N[C@@H](C)c2nc3cccc(F)c3c(=O)n2-c2ccccc2)n1
II: Cc1noc(-c2c(N)ncnc2N[C@@H](C)c2nc3cccc(Cl)c3c(=O)n2-c2ccccc2)n1
III: Cc1nnc(-c2c(N)ncnc2N[C@@H](C)c2nc3cccc(Cl)c3c(=O)n2-c2ccccc2)o1
Ask: # rank_down: sort by pIC50, max first The response must list the labels following the requested ordering.
Result: II, III, I
(II: 6.81, III: 6.17, I: 5.88)

---

protocol_summary: Pharmacokinetics after intravenous and oral administration in rats
Type: in vivo, rat
measurement_setup: iv dosing, dose 1 mg/kg
readout_kind: clearance (CL) (mL/min/kg)

Some compounds with recorded clearance (CL):
Ask: For the compound CC[C@H](Nc1ncnc(N)c1-c1ncn(C)n1)c1nc2cccc(F)c2c(=O)n1C1CC1 , report clearance (CL).
Result: 37

Ask: Return value of clearance (CL) for input CC(C)c1noc(-c2c(N)ncnc2N[C@@H](C)c2nc3cccc(Cl)c3c(=O)n2C2CC2)n1 , no commentary.
Result: 83

Ask: State its clearance (CL): CC(C)c1nc(-c2c(N)ncnc2N[C@@H](C)c2nc3cccc(Cl)c3c(=O)n2C2CC2)no1
Result: 73.7

Ask: State its clearance (CL): Cc1noc(-c2c(N)ncnc2N[C@@H](C)c2nc3cccc(Cl)c3c(=O)n2-c2ccccc2)n1
Result: 129

Ask: Return clearance (CL) (reported value) for this compound: CC[C@H](Nc1ncnc(N)c1-c1nnc(C)o1)c1nc2cccc(C)c2c(=O)n1-c1ccccc1
Result: 71.3

Ask: Input CC[C@H](Nc1ncnc(N)c1-c1ccon1)c1nc2cccc(F)c2c(=O)n1C1CC1 , output reported clearance (CL).
Result: 67.3

1: CC[C@H](Nc1ncnc(N)c1-c1nc(C)no1)c1nc2cccc(Cl)c2c(=O)n1[C@@H]1C[C@@H]1F
2: CC[C@H](Nc1ncnc(N)c1-c1ncnn1C)c1nc2cccc(Cl)c2c(=O)n1C1CC1
3: CC[C@H](Nc1ncnc(N)c1-c1ccon1)c1nc2cccc(C)c2c(=O)n1C1CC1
4: CC[C@H](Nc1ncnc(N)c1-c1nc(C)co1)c1nc2cccc(C)c2c(=O)n1-c1ccccc1C
Ask: Let's sort these by clearance (CL), smallest first. Go ahead? # list labels per requested ordering
Result: 2, 1, 4, 3
(2: 27.3 mL/min/kg, 1: 71.8 mL/min/kg, 4: 130 mL/min/kg, 3: 6100 mL/min/kg)

1: CC[C@H](Nc1ncnc(N)c1-c1noc(C)n1)c1nc2cccc(Cl)c2c(=O)n1-c1ccccc1
2: CC[C@H](Nc1ncnc(N)c1-c1nc(C(N)=O)n(C)n1)c1nc2cccc(Cl)c2c(=O)n1C1CC1
Ask: Compare 1 and 2 by numeric clearance (CL) and name the larger one. Answer = label.
Result: 1
(1: 72.5 mL/min/kg, 2: 26.2 mL/min/kg)
